organism: Homo sapiens; assay: Selectivity index, ratio of Ki for human vasopressin V1a receptor to Ki for human vasopressin V1b receptor
measurement.kind: Ratio Ki

[1] COc1ccc(S(=O)(=O)N2C(=O)C(c3cccnc3OC)(N3CCN(c4cccnc4)CC3)c3cc(Cl)ccc32)c(OC)c1 (stereo not drawn)
[2] CCOc1ccc(OC)cc1C1(N2CCN(c3ccncc3)CC2)C(=O)N(S(=O)(=O)c2cccc3cccnc23)c2ccc(C#N)cc21 (stereo not drawn)
[3] CCOc1ccc(OC)cc1C1(N2CCN(c3ccncc3)CC2)C(=O)N(S(=O)(=O)c2ccc(OC)cn2)c2ccc(C#N)cc21 (stereo not drawn)
In this exercise, place the 3 molecules in ascending sequence of their recorded Ratio Ki. List the labels, following the order given in the request. 1, 2, 3
(1: 0.1, 2: 79, 3: 216)

###

experiment: Intrinsic clearance in rat liver microsomes; type: ADME, microsome; conditions: read-out: CLH
measurement.kind: microsomal CLint (µL/min/mg)

# count of solved cases: 5
compound: CCOc1ccc(OC)cc1C1(N2CCN(c3ccncc3)CC2)C(=O)N(S(=O)(=O)c2ccc(F)c3cccnc23)c2ccc(C#N)cc21 (configuration not stated)
display.unit: µL/min/mg
observed.measurement: 119
--
compound: CCOc1nc(Cl)ccc1C1(N2CCN(c3ccncc3)CC2)C(=O)N(S(=O)(=O)c2ccc(OC)cn2)c2ccc(C#N)cc21 (configuration not stated)
display.unit: µL/min/mg
observed.measurement: 63
--
compound: CCOc1nc(Cl)ccc1C1(N2CCN(c3ccnc(C)c3)CC2)C(=O)N(S(=O)(=O)c2ccc(OC)cn2)c2ccc(C#N)cc21 (single isomer, unassigned; (+))
display.unit: µL/min/mg
observed.measurement: 22
--
compound: COc1ccccc1C1(N2CCN(c3cccnc3)CC2)C(=O)N(S(=O)(=O)c2cccc3cccnc23)c2ccc(Cl)cc21 (configuration not stated)
display.unit: µL/min/mg
observed.measurement: 359
--
compound: COc1ccc(S(=O)(=O)N2C(=O)C(c3cccnc3OC)(N3CCN(c4cccnc4)C(=O)C3)c3cc(Cl)ccc32)c(OC)c1 (configuration not stated)
display.unit: µL/min/mg
observed.measurement: 291

[a] CCOc1ncccc1C1(N2CCN(c3ccncc3)CC2)C(=O)N(S(=O)(=O)c2ccc(OC)cc2OC)c2ccc(C#N)cc21 (configuration not stated)
[b] CCOc1ccc(OC)cc1C1(N2CCN(c3ccncc3)CC2)C(=O)N(S(=O)(=O)c2ccc(OC)cc2OC)c2ccc(C#N)cc21 (configuration not stated)
Which of these two has the smaller recorded microsomal CLint: a or b ? Answer by stating the label of the chosen item. b

###

assay: Ratio of AUC in rat brain to plasma at 10 mg/kg, ip measured after 8 hrs; format: ADME, organism-based; conditions: read-out: Ratio AUC
measurement.kind: Kp at 8 h

compound: CCOc1nc(Cl)ccc1C1(N2CCN(c3ccnc(C)c3)CC2)C(=O)N(S(=O)(=O)c2ccc(OC)cn2)c2ccc(C#N)cc21 (single isomer, unassigned; (+))
measurement.kind: Kp at 8 h
observed.measurement: 1
//
compound: CCOc1ccc(OC)cc1C1(N2CCN(c3ccncc3)CC2)C(=O)N(S(=O)(=O)c2ccc(OC)cc2OC)c2ccc(C#N)cc21 (stereo not drawn)
measurement.kind: Kp at 8 h
observed.measurement: 1.1
//
compound: CCOc1ccc(OC)cc1C1(N2CCN(c3ccncc3)CC2)C(=O)N(S(=O)(=O)c2cccc3cccnc23)c2ccc(C#N)cc21 (stereo not drawn)
measurement.kind: Kp at 8 h
observed.measurement: 1.4

###

assay: Intrinsic clearance in human liver microsomes; type: ADME, microsome; details: read-out: CLH
measurement.kind: microsomal CLint (µL/min/mg)

molecule: CCOc1ccc(OC)cc1C1(N2CCN(c3ccncc3)CC2)C(=O)N(S(=O)(=O)c2ccc(OC)c3cccnc23)c2ccc(C#N)cc21 (configuration not stated)
microsomal CLint / µL/min/mg: 33

molecule: CCOc1ccc(OC)cc1C1(N2CCN(c3ccncc3)CC2)C(=O)N(S(=O)(=O)c2ccc(F)c3cccnc23)c2ccc(C#N)cc21 (configuration not stated)
microsomal CLint / µL/min/mg: 131

[P] CCOc1ccccc1C1(N2CCN(c3ccncc3)CC2)C(=O)N(S(=O)(=O)c2ccc(OC)cc2OC)c2ccc(C#N)cc21 (configuration not stated)
[Q] COc1ccc(S(=O)(=O)N2C(=O)C(c3cccnc3OC)(N3CCN(c4cccnc4)CC3)c3cc(Cl)ccc32)c(OC)c1 (configuration not stated)
[R] CCOc1ccc(OC)cc1C1(N2CCN(c3ccncc3)CC2)C(=O)N(S(=O)(=O)c2ccc(OC)cc2)c2ccc(C#N)cc21 (configuration not stated)
[S] COc1ccccc1C1(N2CCN(c3cccnc3)CC2)C(=O)N(S(=O)(=O)c2cccc3cccnc23)c2ccc(Cl)cc21 (configuration not stated)
Place the items in sequence of falling microsomal CLint. Please reply with the labels ordered as requested. Many thanks. S, R, P, Q

###

species on record: Homo sapiens; experiment: Selectivity index, ratio of Ki for human vasopressin V1a receptor to Ki for human vasopressin V1b receptor
measurement.kind: Ratio Ki

Below are worked cases with known answers.
molecule: COc1ccc(S(=O)(=O)N2C(=O)C(c3ccccc3OC)(N3CCN(c4cccnc4)CC3)c3cc(Cl)ccc32)c(OC)c1 (centres undefined)
Ratio Ki: 0.8
--
molecule: COc1ccccc1C1(N2CCN(c3cccnc3)CC2)C(=O)N(S(=O)(=O)c2cccc3cccnc23)c2ccc(Cl)cc21 (centres undefined)
Ratio Ki: 3
--
molecule: CCOc1nc(Cl)ccc1C1(N2CCN(c3ccnc(C)c3)CC2)C(=O)N(S(=O)(=O)c2ccc(OC)cn2)c2ccc(C#N)cc21 (racemic)
Ratio Ki: 125
--
molecule: CCOc1nc(Cl)ccc1C1(N2CCN(c3ccncc3)CC2)C(=O)N(S(=O)(=O)c2ccc(OC)cn2)c2ccc(C#N)cc21 (centres undefined)
Ratio Ki: 325
--
molecule: COc1ccc(S(=O)(=O)N2C(=O)C(c3cc(OC)ccc3OC)(N3CCN(c4ccncc4)CC3)c3cc(C#N)ccc32)c(OC)c1 (centres undefined)
Ratio Ki: 2

[a] COc1ncccc1C1(N2CCN(c3cccnc3)CC2)C(=O)N(S(=O)(=O)c2cccc3cccnc23)c2ccc(C#N)cc21 (centres undefined)
[b] COc1ncccc1C1(N2CCN(c3cccnc3)CC2)C(=O)N(S(=O)(=O)c2cccc3cccnc23)c2ccc(Cl)cc21 (centres undefined)
[c] CCOc1nc(Cl)ccc1C1(N2CCN(c3ccnc(C)c3)CC2)C(=O)N(S(=O)(=O)c2ccc(OC)cn2)c2ccc(C#N)cc21 (single isomer, unassigned; (+))
Order each entry by recorded Ratio Ki, climbing from the minimum. Your task in answering is to list the labels in the requested order. b, a, c

###

assay: Intrinsic clearance in rat liver microsomes; assay type: ADME, microsome; conditions: read-out: CLH
measurement.kind: microsomal CLint (µL/min/mg)

[P] COc1ccc(S(=O)(=O)N2C(=O)C(c3cccnc3OC)(N3CCN(C)C(=O)[C@H]3C)c3cc(Cl)ccc32)c(OC)c1 (some centres not stated)
[Q] COc1ccc(S(=O)(=O)N2C(=O)C(c3ccccc3OC)(N3CCN(c4ccncc4)CC3)c3cc(C#N)ccc32)c(OC)c1 (configuration not stated)
Hello, I am sorting some records. Could you say if P or Q has the smaller microsomal CLint value? Respond with the label that goes with your answer. P

[I] COc1ccc(S(=O)(=O)N2C(=O)C(c3ccccc3OC)(N3CCN(c4cccnc4)CC3)c3cc(Cl)ccc32)c(OC)c1 (configuration not stated)
[II] COc1ccc(S(=O)(=O)N2C(=O)C(c3cc(OC)ccc3OC)(N3CCN(c4ccncc4)CC3)c3cc(C#N)ccc32)c(OC)c1 (configuration not stated)
Field: entry with larger microsomal CLint (options I / II ). // return label of chosen record I

###

species: Homo sapiens; assay: Selectivity index, ratio of Ki for human oxytocin receptor to Ki for human vasopressin V1b receptor
measurement.kind: Ratio Ki

compound: CCOc1ccc(OC)cc1C1(N2CCN(c3ccncc3)CC2)C(=O)N(S(=O)(=O)c2ccc(OC)c3cccnc23)c2ccc(C#N)cc21 (configuration not stated)
Ratio Ki: 4
--
compound: COc1ccccc1C1(N2CCN(c3cccnc3)CC2)C(=O)N(S(=O)(=O)c2cccc3cccnc23)c2ccc(Cl)cc21 (configuration not stated)
Ratio Ki: 10
--
compound: CCOc1nc(Cl)ccc1C1(N2CCN(c3ccncc3)CC2)C(=O)N(S(=O)(=O)c2ccc(OC)cn2)c2ccc(C#N)cc21 (configuration not stated)
Ratio Ki: 201
--
compound: CCOc1ccc(OC)cc1C1(N2CCN(c3ccncc3)CC2)C(=O)N(S(=O)(=O)c2ccc(OC)cc2)c2ccc(C#N)cc21 (configuration not stated)
Ratio Ki: 15
--
compound: CCOc1ccc(OC)cc1C1(N2CCN(c3ccncc3)CC2)C(=O)N(S(=O)(=O)c2ccc(OC)cc2OC)c2ccc(C#N)cc21 (configuration not stated)
Ratio Ki: 6

[I] CCOc1ccc(OC)cc1C1(N2CCN(c3ccncc3)CC2)C(=O)N(S(=O)(=O)c2ccc(OC)cn2)c2ccc(C#N)cc21 (configuration not stated)
[II] CCOc1ccc(OC)cc1C1(N2CCN(c3ccncc3)CC2)C(=O)N(S(=O)(=O)c2cccc3cccnc23)c2ccc(C#N)cc21 (configuration not stated)
Looking at I and II , which one comes out lower in Ratio Ki terms? // respond with label for picked entry II
(II: 34, I: 230)
